ENDPOINT: melting point

INSERT INTO measurements (compound, result) VALUES
  ('COC(=O)c1ccc([C@@H](O)[C@H](Cc2cccc(OC(F)(F)C(F)F)c2)NC(=O)OC(C)(C)C)cc1 (racemic)', '148 to 150 °C'),
  ('CCOc1ccc2ccccc2c1C(=O)N[C@H](Cc1ccc(C(F)(F)F)cc1)[C@@H](O)c1ccc(F)cc1 (racemic)', '157 to 158 °C'),
  ('O=C(N[C@H](Cc1cccc(OC(F)(F)C(F)F)c1)[C@@H](O)c1ccc(OCc2ccc(F)cc2)cc1)c1cccc2c1C=CCCC2 (racemic)', '144 to 145 °C'),
  ('O=C(N[C@H](Cc1cccc(OC(F)(F)C(F)F)c1)[C@@H](O)c1ccnc(F)c1)c1cccc2c1C=CCCC2 (racemic)', '159 to 160 °C'),
  ('O=C(N[C@H](Cc1ccc(C(F)(F)F)cc1)[C@@H](O)c1ccc(F)cc1)c1cccc2cc([N+](=O)[O-])ccc12 (racemic)', '206 to 207 °C');

Asked: GET /values?readout=melting point&item= O=C(CCc1ccccc1)N[C@H](Cc1ccc(C(F)(F)F)cc1)[C@@H](O)c1ccc(F)cc1 (racemic)
Given back: 144 to 145 °C

Cited source for all entries: patent US6982348B2
